- assayExplanation: Confirmatory qHTS for Identification of Small Molecule Activators of Huntingtin-Antisense Promoter Activity
- experimentalParameters: HEK293 HTT-AS promoter firefly luciferase reporter, 24 h; series mostly up to 57.5 µM
Active and inactive are the calls of the source. Calls follow the shape of the dose curve; as a rule, active = well fitted activation curve with a large enough effect; inconclusive = small, poorly fitted or top-dose-only effect; inactive = no such curve, though single readings can be large or run the other way.
Just give me one of these, please: active, inactive

Q: In this assay, the call recorded for CCOCCCNC(=O)c1c[nH]c2ccc(S(=O)(=O)N(C)c3ccc(Cl)cc3F)cc2c1=O was what?
Ans: inactive

Q: Now give it for COc1ccc(-c2noc(N3CCC(C(=O)N4CCN(c5cccc(OC)c5)CC4)CC3)n2)cc1 too.
Ans: inactive

Q: How about this compound: O=C(Nc1ccc(Oc2ccccc2)cc1)C1CCN(S(=O)(=O)c2ccccc2)CC1
Ans: inactive

Q: And then Cc1ccc(C(=O)Nc2ccc(S(=O)(=O)N(Cc3ccccc3)c3ccccc3)cc2)cc1 , what is it?
Ans: inactive

Q: Now the same for CCc1ccc(NC(=O)c2ccc(F)c(S(=O)(=O)N3CCc4ccccc4C3)c2)cc1
Ans: inactive

New cases:
Q: Hello, I am checking results. What call was entered for CCS(=O)(=O)N1CC(CC#N)(n2cc(-c3ncnc4[nH]ccc34)cn2)C1 ?
Ans: active

Q: Please give the result for COc1ccc(-c2ccc3ncc4c(c3c2)n(-c2ccc(N3CCNCC3)c(C(F)(F)F)c2)c(=O)n4C)cn1 too.
Ans: inactive

Q: Thanks! And Cc1ccc(Cl)cc1N1CCN(C(=O)c2cccn2-c2nnc(N3CCCCC3)s2)CC1 ?
Ans: inactive

Q: And CC(C)c1ccc(CNC(=O)c2ccc(N3CCCC3)c(NC(=O)NCc3ccc(F)cc3)c2)cc1 ?
Ans: inactive

====

- assayExplanation: Confirmatory qHTS for Identification of Small Molecule Activators of Huntingtin-Antisense Promoter Activity
- experimentalParameters: HEK293 HTT-AS promoter firefly luciferase reporter, 24 h; series mostly up to 57.5 µM
The source made the active and inactive calls. Calls follow the shape of the dose curve; as a rule, active = well fitted activation curve with a large enough effect; inconclusive = small, poorly fitted or top-dose-only effect; inactive = no such curve, though single readings can be large or run the other way.
experimentalReadout: outcome

Q: Request the reported outcome associated with Cn1cnc(=N)c2[nH]cnc21
Ans: inactive

Q: Also check COc1ccc2oc(=O)c(C(=O)NCCc3c(C)[nH]c4ccc(C)cc34)cc2c1
Ans: inactive

Q: Same read-out for CCC(Oc1ccccc1)C(=O)N1CCN(Cc2cc(=O)n3nc(-c4cccc(C)c4)sc3n2)CC1 (stereo not drawn) ?
Ans: inactive
